# experimental.system: human topoisomerase I (Homo sapiens)
# Construct: purchased Inspiralis Limited, UK (assay run by the vendor as a service)
# Sequence (P11387 whole entry): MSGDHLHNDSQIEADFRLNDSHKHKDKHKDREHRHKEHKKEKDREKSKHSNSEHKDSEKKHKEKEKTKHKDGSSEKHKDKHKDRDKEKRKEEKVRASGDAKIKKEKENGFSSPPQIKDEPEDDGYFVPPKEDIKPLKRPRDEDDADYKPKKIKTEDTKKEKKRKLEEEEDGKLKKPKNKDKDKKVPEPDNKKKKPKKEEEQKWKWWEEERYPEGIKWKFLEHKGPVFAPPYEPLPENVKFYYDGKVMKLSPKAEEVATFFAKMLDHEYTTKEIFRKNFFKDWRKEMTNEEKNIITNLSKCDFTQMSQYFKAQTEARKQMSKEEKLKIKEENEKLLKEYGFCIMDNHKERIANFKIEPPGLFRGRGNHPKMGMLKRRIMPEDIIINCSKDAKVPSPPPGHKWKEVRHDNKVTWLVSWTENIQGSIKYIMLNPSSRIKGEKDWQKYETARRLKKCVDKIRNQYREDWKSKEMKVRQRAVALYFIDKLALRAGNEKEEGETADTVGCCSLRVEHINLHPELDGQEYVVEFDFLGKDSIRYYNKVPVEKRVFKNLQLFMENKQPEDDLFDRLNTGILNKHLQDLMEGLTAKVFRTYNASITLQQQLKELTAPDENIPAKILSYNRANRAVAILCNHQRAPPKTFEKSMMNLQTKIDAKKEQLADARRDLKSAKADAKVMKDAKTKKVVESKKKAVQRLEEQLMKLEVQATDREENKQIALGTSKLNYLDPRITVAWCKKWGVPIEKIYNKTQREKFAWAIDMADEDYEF
# test.method.notes: DNA relaxation assay on human topoisomerase I (gel based, supercoiled pBR322)
# Format: biochemical
# stated.conditions: ±SD, n = 2; relaxation of supercoiled pBR322, 37 °C, 30 min, 10 % DMSO; read-out: IC50 [µM] Topo I
quantity.name: IC50 (µM)
Give bare numbers, in µM.

Recorded results for 3 molecules are shown here.
CC=C(C)C(=O)OC1C(OC(=O)C(C)=CC)C2(CO)C(O)CC3(C)C(=CCC4C5(C)CCC(OC6OC(C(=O)O)C(OC7OC(CO)C(O)C7O)C(OC7OCC(O)C(O)C7O)C6OC6OC(CO)C(O)C(O)C6O)C(C)(C)C5CCC43C)C2CC1(C)C (stereo not drawn) [Compound 10, pittangretoside T] ... 5
CC=C(C)C(=O)OC1CC(C)(C)CC2C3=CCC4C5(C)CCC(OC6OC(C(=O)O)C(O)C(O)C6OC6OC(CO)C(O)C(O)C6OC6OC(C)C(O)C(O)C6O)C(C)(C)C5CCC4(C)C3(C)C(O)C(O)C12CO (stereo not drawn) [Compound 2, pittangretoside D] ... 4.8
CC=C(C)C(=O)OC1C(OC(C)=O)C(C)(C)CC2C3=CCC4C5(C)CCC(OC6OC(C(=O)O)C(OC7OC(CO)C(O)C7O)C(OC7OCC(O)C(O)C7O)C6OC6OC(CO)C(O)C(O)C6O)C(C)(C)C5CCC4(C)C3(C)C(O)C(O)C21CO (stereo not drawn) [Compound 5, pittangretoside N] ... 6.5

Please give IC50, item by item, for the list that follows.
1. CC=C(C)C(=O)OC1C(OC(=O)C(C)=CC)C2(CO)C(CC1(C)C)C1=CCC3C4(C)CCC(OC5OC(C(=O)O)C(OC6OC(CO)C(O)C6O)C(OC6OCC(O)C(O)C6O)C5OC5OC(CO)C(O)C(O)C5O)C(C)(C)C4CCC3(C)C1(C)C(O)C2O (stereo not drawn)
2. CCC(C)(OC(C)=O)C(=O)OC1C(OC(C)=O)C(C)(C)CC2C3=CCC4C5(C)CCC(OC6OC(C(=O)O)C(OC7OC(CO)C(O)C7O)C(OC7OCC(O)C(O)C7O)C6OC6OC(CO)C(O)C(O)C6O)C(C)(C)C5CCC4(C)C3(C)C(O)C(O)C21CO (stereo not drawn) [Compound 6, pittangretoside O]

Reply |
1. 46.5
2. 7.5

Ask | // query IC50 value for entry CCC(C)C(=O)OC1C(OC(C)=O)C2(CO)C(CC1(C)C)C1=CCC3C4(C)CCC(OC5OC(C(=O)O)C(OC6OC(CO)C(O)C6O)C(OC6OCC(O)C(O)C6O)C5OC5OC(CO)C(O)C(O)C5O)C(C)(C)C4CCC3(C)C1(C)C(O)C2O (stereo not drawn) [Compound 7, pittangretoside P]
Reply | 4.2
